# Test system: Staphylococcus aureus
# ASSAY OVERVIEW: Antibacterial activity against methicillin resistant Staphylococcus aureus clinical isolate 5 incubated […] by microdilution resazurin assay
# Assay type: functional
# APPLIED CONDITIONS: Staphylococcus aureus, isolate 5; read-out: MIC
VALUE KIND: MIC (µM)
Expressed in µM, but write only the number.

Please review the entries below; each comes with its answer.
- COMPOUND: "O=C(CCc1ccccc1)c1c(O)cc2c(c1O)CC(O)C(c1ccc(O)cc1)O2 (stereo in doubt; (-)-17)"
  MIC / µM: 50
- COMPOUND: "COc1ccc(CCC(=O)c2c(O)cc(O)c3c2O[C@@H](c2ccc(O)cc2)CC3)cc1"
  MIC / µM: 13

Kindly consider the entry below.
Q: Tell me reported MIC for O=C(CCc1ccc(O)cc1)c1c(O)cc(O)c2c1O[C@H](c1ccc(O)cc1)[C@@H](C/C=C/c1ccc(O)cc1)C2 , tested with Staphylococcus aureus.
Result: 3

Where these numbers come from: ChEMBL document CHEMBL4425163
